# target-or-system: AVP-pVIc complexes (Human adenovirus C serotype 2, UniProt P03252)
# Sequence (P03252 whole entry, one chain of several): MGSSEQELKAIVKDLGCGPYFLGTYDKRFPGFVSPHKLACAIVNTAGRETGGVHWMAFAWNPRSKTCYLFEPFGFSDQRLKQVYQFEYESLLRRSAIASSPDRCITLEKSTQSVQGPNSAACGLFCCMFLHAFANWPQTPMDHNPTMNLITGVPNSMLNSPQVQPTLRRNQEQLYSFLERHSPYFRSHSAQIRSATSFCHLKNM
# measurement-notes: Inhibition of AVP-pVIc complexes, fluorogenic substrate assay
# Format: biochemical, adenovirus serotype 2
result-type: pIC50
// returns pIC50 (minus log10 of molar concentration), number only

These recorded examples may help you get a feel for the data.
{"columns": ["smiles-notation", "result-type", "reported-result"],
 "data": [
  ["CC(C)CCN(CCC(C)C)CC(=O)Nc1ccc(S(=O)(=O)c2ccc(NC(=O)CN(CCC(C)C)CCC(C)C)cc2)cc1", "pIC50", 5.68],
  ["O=C1CN2CCN(CC2)CC(=O)Nc2ccc(cc2)S(=O)(=O)c2ccc(cc2)NC(=O)CN2CCN(CC2)CC(=O)Nc2ccc(cc2)S(=O)(=O)c2ccc(cc2)N1", "pIC50", 4.74]
]}

# input for lookup
Could you share which pIC50 value was measured for O=C(CN(C1CCCCC1)C1CCCCC1)Nc1ccc(S(=O)(=O)c2ccc(NC(=O)CN(C3CCCCC3)C3CCCCC3)cc2)cc1 ?
6.31

----------
# target-or-system: AVP-pVIc complexes (Human adenovirus C serotype 2)
# measurement-notes: Competitive inhibition of AVP-pVIc complexes
# test-parameters: Ki AVP:pVIc, competitive inhibition model; substrate 2.5-20 μM
result-type: Ki (nM)
Give the quantity in nM, number only.

For the compound O=C(CN(C1CCCCC1)C1CCCCC1)Nc1ccc(S(=O)(=O)c2ccc(NC(=O)CN(C3CCCCC3)C3CCCCC3)cc2)cc1 , what Ki is on record?
403
